- measured.on: recombinant human cGAS (aa147-522) (Homo sapiens, UniProt Q8N884)
- Construct: recombinant human cGAS (aa147-522); His6-SUMO (cleaved yes); made in house; host or cells: E. coli BL21/pLys
- Sequence (Q8N884 147-522): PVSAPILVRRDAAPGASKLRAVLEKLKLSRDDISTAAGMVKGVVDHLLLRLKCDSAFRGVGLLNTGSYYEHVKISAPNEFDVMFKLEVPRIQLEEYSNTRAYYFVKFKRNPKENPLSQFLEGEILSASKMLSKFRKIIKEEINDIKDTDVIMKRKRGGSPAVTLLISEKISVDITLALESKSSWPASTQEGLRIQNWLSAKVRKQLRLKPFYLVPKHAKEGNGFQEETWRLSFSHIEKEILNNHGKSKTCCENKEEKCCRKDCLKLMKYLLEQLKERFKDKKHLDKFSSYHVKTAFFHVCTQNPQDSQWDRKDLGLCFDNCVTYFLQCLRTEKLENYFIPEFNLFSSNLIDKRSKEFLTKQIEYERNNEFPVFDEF
- method.summary: In vitro inhibition assay of cGAS activity (ATP consumption, KinaseGlo Max)
- Assay type: biochemical
- study.conditions: Table 3, read-out: cGAS Inhibition Results IC50
quantity.kind: IC50

[in] What does the data say about its IC50? Entry: CCOc1c(Cl)ccc2c(-n3ccnc3)cc(N3CCC[C@H]3COCCC(=O)O)nc12 [I-861]
[out] > 30000 nM

[in] What does the data say about its IC50? Entry: COC(=O)[C@@H]1[C@@H](OCCC(=O)O)CCN1c1cc(-n2ccnc2)c2ccc(Cl)c(Cl)c2n1 [I-870]
[out] 2000 to 30000 nM

[in] What does the data say about its IC50? Entry: O=C(O)COCC[C@@H]1CC[C@@H](C(=O)O)N1c1cc(-n2ccnc2)c2ccc(Cl)c(Cl)c2n1 [I-715]
[out] < 2000 nM

[in] What does the data say about its IC50? Entry: O=C(O)CCCC[C@@H]1CCCN1c1cc(-n2ccnc2)c2ccc(Cl)c(Cl)c2n1 [I-683]
[out] < 2000 nM

---

- measured.on: recombinant human cGAS (aa147-522) (Homo sapiens)
- Construct: recombinant human cGAS (aa147-522); His6-SUMO (cleaved yes); made in house; host or cells: E. coli BL21/pLys
- method.summary: In vitro inhibition assay of cGAS activity (ATP consumption, KinaseGlo Max)
- Type: biochemical
- study.conditions: Table 3, read-out: cGAS Inhibition Results IC50
quantity.kind: IC50

[in] What does the data say about its IC50? Entry: O=C(O)CCNC(=O)[C@@H]1[C@@H](O)CCN1c1cc(-n2ccnc2)c2ccc(Cl)c(Cl)c2n1
[out] < 2000 nM

[in] What does the data say about its IC50? Entry: COC(=O)CNC(=O)C[C@@H]1CCCN1c1cc(-n2ccnc2)c2ccc(Cl)c(Cl)c2n1
[out] < 2000 nM

[in] What does the data say about its IC50? Entry: CN(CCNC(=O)CCO)c1cc(-n2ccnc2)c2ccc(Cl)c(Cl)c2n1
[out] 2000 to 30000 nM

[in] What does the data say about its IC50? Entry: O=C(O)C#CC[C@@H]1CCCN1c1cc(-n2ccnc2)c2ccc(Cl)c(Cl)c2n1
[out] < 2000 nM

[in] What does the data say about its IC50? Entry: Clc1ccc2c(-n3ccnc3)cc(N3CCC[C@H]3c3nn[nH]n3)nc2c1Cl
[out] < 2000 nM

[in] What does the data say about its IC50? Entry: O=C1NC(=O)[C@H](CS(=O)(=O)NC[C@@H]2CCCN2c2cc(-n3ccnc3)c3ccc(Cl)c(Cl)c3n2)N1
[out] < 2000 nM

[in] What does the data say about its IC50? Entry: O=C(C[C@@H]1CCCN1c1cc(-n2ccnc2)c2ccc(Cl)c(Cl)c2n1)NCCC(O)(C(F)(F)F)C(F)(F)F
[out] 2000 to 30000 nM

[in] What does the data say about its IC50? Entry: CN(CCC(=O)N1CCC(S(N)(=O)=O)C1)c1cc(-n2ccnc2)c2ccc(Cl)c(Cl)c2n1 (centres unmarked)
[out] < 2000 nM
